assay: Foam test based upon ASTM D 1173-53; type: physicochemical; conditions: 0.1 wt % solution; foam height at completion of addition
parameter_measured: initial foam (cm)
Reply with just the number (in cm).

Example results:
{"columns": ["compound", "parameter_measured", "recorded_value"],
 "data": [
  ["CC(C)CNC(=O)CC(O)(CC(=O)NCC(C)C)C(=O)NCC(C)C [Example 3, N,N′,N″-tri-iso-butylcitramide]", "initial foam", 1.0],
  ["CC(C)CCNC(=O)CC(O)(CC(=O)NCCC(C)C)C(=O)NCCC(C)C [Example 4, N,N′,N″-tri-iso-amylcitramide]", "initial foam", 1.3],
  ["CCCCNC(=O)CC(O)(CC(=O)NCCCC)C(=O)NCCCC [Example 2, N,N′,N″-tri-n-butylcitramide]", "initial foam", 1.3]
]}

Looking up CCCNC(=O)CC(O)(CC(=O)NCCC)C(=O)NCCC [Example 1, N,N′,N″-tri-n-propylcitramide] , I found its initial foam recorded as 2.8

----------
experiment: Dynamic surface tension of aqueous solutions, maximum-bubble pressure method; assay type: physicochemical; conditions: 0.1 wt % solution in water, 6 b/s
parameter_measured: γ (0.1 wt % solution) (6 b/s) (Dyne/cm)
Reply with just the number (in Dyne/cm).

{"columns": ["compound", "parameter_measured", "measurement_units", "recorded_value"],
 "data": [
  ["CC(C)CNC(=O)CC(O)(CC(=O)NCC(C)C)C(=O)NCC(C)C [Example 3, N,N′,N″-tri-iso-butylcitramide]", "γ (0.1 wt % solution) (6 b/s)", "Dyne/cm", 52.5],
  ["CCCNC(=O)CC(O)(CC(=O)NCCC)C(=O)NCCC [Example 1, N,N′,N″-tri-n-propylcitramide]", "γ (0.1 wt % solution) (6 b/s)", "Dyne/cm", 67.2],
  ["CC(C)CCNC(=O)CC(O)(CC(=O)NCCC(C)C)C(=O)NCCC(C)C [Example 4, N,N′,N″-tri-iso-amylcitramide]", "γ (0.1 wt % solution) (6 b/s)", "Dyne/cm", 66.6]
]}

Looking up CCCCNC(=O)CC(O)(CC(=O)NCCCC)C(=O)NCCCC [Example 2, N,N′,N″-tri-n-butylcitramide] , I found its γ (0.1 wt % solution) (6 b/s) recorded as 52.6

----------
Here the recorded γ (0.1 wt % solution) (1 b/s) is given for each entry.
test: Dynamic surface tension of aqueous solutions, maximum-bubble pressure method; assay type: physicochemical; details: 0.1 wt % solution in water, 1 b/s
Reply with just the number (in Dyne/cm).

{"columns": ["compound", "γ (0.1 wt % solution) (1 b/s) (Dyne/cm)"],
 "data": [
  ["CC(C)CCNC(=O)CC(O)(CC(=O)NCCC(C)C)C(=O)NCCC(C)C [Example 4, N,N′,N″-tri-iso-amylcitramide]", 63.3],
  ["CC(C)CNC(=O)CC(O)(CC(=O)NCC(C)C)C(=O)NCC(C)C [Example 3, N,N′,N″-tri-iso-butylcitramide]", 51.8],
  ["CCCNC(=O)CC(O)(CC(=O)NCCC)C(=O)NCCC [Example 1, N,N′,N″-tri-n-propylcitramide]", 66.7]
]}

Turning to the following compound.
Looking up CCCCNC(=O)CC(O)(CC(=O)NCCCC)C(=O)NCCCC [Example 2, N,N′,N″-tri-n-butylcitramide] , I found its γ (0.1 wt % solution) (1 b/s) recorded as 51.2

The values you see were collected from patent US6399088B1.
